Experiment: Solubility in DMSO:Cremophor EL:1xPBS mixture at 10 mg/ml incubated for 7 days
Format: physicochemical
Settings: 168 h, time 7 day
QUANTITY_KIND: solubility

| MOLECULE | QUANTITY_KIND | EXPERIMENTAL_VALUE |
| --- | --- | --- |
| Nc1ncnc2c1c(-c1ccc(Oc3ccccc3)cc1)nn2[C@@H]1CCCN(C(=O)c2cn(CCOCCOCCOCCCc3cccc4c3CN(C3CCC(=O)NC3=O)C4=O)nn2)C1 (some centres undefined) | solubility | Insoluble |
| Nc1ncnc2c1c(-c1ccc(Oc3ccccc3)cc1)nn2C1CCN(C2CN(C3CN(c4ccc5c(c4)C(=O)N(C4CCC(=O)NC4=O)C5=O)C3)C2)CC1 (centres undefined) | solubility | Insoluble |
| C=CC(=O)N1CCC[C@@H](n2nc(-c3ccc(Oc4ccccc4)cc3)c3c(N)ncnc32)C1 | solubility | Insoluble |
